EC50 CreLuc hGIPR 0.5% hP values for the binders below.
# assay system: T1, human GIP receptor (human, UniProt P48546 22-466)
# T1 sequence (looked up): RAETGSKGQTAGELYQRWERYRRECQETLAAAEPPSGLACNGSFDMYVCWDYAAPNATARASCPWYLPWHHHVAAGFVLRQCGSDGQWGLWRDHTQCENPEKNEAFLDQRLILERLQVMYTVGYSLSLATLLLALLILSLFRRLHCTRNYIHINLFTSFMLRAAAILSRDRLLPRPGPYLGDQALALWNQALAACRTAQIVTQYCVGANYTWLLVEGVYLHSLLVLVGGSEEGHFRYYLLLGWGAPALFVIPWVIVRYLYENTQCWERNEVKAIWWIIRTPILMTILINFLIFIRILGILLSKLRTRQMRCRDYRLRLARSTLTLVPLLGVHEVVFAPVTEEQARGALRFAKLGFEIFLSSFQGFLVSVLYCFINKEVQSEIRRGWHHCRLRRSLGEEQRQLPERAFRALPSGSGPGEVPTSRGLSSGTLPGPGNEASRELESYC
# test description: cell-based or functional assay
Starred links: 1 amine or outer side, 2 acyl side, 3 side chain; linkers in the order of their positions; H or OH if unused. Non-standard residues stand in square brackets, D forms with d. Groups on a side chain read outwards from the residue. No end group written: not given here. *: point of attachment. C20 diacid = O=C(O)CCCCCCCCCCCCCCCCCCC(=O)*; C18 diacid = O=C(O)CCCCCCCCCCCCCCCCC(=O)*; γGlu = O=C(O)[C@H](CCC(=O)[*:2])N[*:1]; AEEA = NCCOCCOCC(=O)O; Aib = CC(C)(N)C(=O)O; Ahx = NCCCCCC(=O)O

These recorded examples may help you get a feel for the data.
binder="Y[Aib]EGTFTSDYSI[Aib]LEKQAQ[Aib]AFVEWLIK([AEEA-AEEA-γGlu-γGlu-γGlu-γGlu-C18 diacid])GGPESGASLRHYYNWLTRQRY-NH2 [Compound 163]" readout_label="EC50 CreLuc hGIPR 0.5% hP" result="0.26 nM"
binder="Y[Aib]EGTFTSDYSI[Aib]LEKQAQ[Aib]AFVQWLIK([AEEA-AEEA-γGlu-γGlu-Glu-γGlu-C20 diacid])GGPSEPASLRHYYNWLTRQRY-NH2 [Compound 165]" readout_label="EC50 CreLuc hGIPR 0.5% hP" result="0.33 nM"
binder="Y[Aib]EGTFTSDYSI[Aib]LEKQAQ[Aib]AFVQWLIK([Ahx-γGlu-γGlu-γGlu-γGlu-γGlu-γGlu-C18 diacid])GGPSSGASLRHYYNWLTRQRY-NH2 [Compound 139]" readout_label="EC50 CreLuc hGIPR 0.5% hP" result="0.22 nM"

Now look at this entry.
[ask] Please report EC50 CreLuc hGIPR 0.5% hP for the following binder: YXEGTFTSDYSIXLEKQAQXAFVEWLIKGGPSSGASVRHYYNWLTRQRY (Aib at 2, 13, 20; K28 side chain: C20DA-gGlu-gGlu-gGlu-gGlu-gGlu-gGlu-eLys; C-terminal NH2) [Compound 117]
[reply] 0.14 nM
